Recorded measurements of abundance fitness, one per entry
B1: Chromodomain-helicase-DNA-binding protein 4, residues 444 to 496; numbered along this chain, Q14839 (parent)
chain: EDDHHMEFCRVCKDGGELLCCDTCPSSYHIHCLNPPLPEIPNGEWLCPRCTCP

Variants of: B1
Assay: abundance fitness (aPCA) (normalised: wild type 0, dead -1); higher = more abundant; growth selection in yeast, the domain comes from the species named
Conditions: Homo sapiens
Respond using a number only.

| Variant Annotation | Assay Result |
| --- | --- |
| P25I | -0.15 |

I'd like to know its abundance fitness. The variant in question is E17I -0.206

I'd like to know its abundance fitness. The variant in question is H4N 0.197

I'd like to know its abundance fitness. The variant in question is N34P -0.219

I'd like to know its abundance fitness. The variant in question is I40G -0.007

I'd like to know its abundance fitness. The variant in question is H4E -0.126
